Values from ChEMBL document CHEMBL4376854

molecular target: Mu-type opioid receptor (Homo sapiens)
Sequence (P35372 whole entry): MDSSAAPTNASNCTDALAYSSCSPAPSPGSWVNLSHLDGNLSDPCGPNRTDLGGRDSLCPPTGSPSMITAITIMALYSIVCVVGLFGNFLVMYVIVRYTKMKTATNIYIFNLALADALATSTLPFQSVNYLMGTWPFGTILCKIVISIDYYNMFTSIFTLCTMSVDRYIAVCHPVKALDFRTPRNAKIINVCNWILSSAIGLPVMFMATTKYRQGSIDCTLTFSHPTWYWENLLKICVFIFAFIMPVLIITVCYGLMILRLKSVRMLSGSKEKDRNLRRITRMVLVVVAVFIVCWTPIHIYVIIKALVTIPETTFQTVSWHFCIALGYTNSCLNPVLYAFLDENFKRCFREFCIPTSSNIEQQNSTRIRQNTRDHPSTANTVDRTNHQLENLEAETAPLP
Endpoint name: Ki (µM)
Hi! Could you send only the number? It should be in µM, unit omitted.

Exercise: State the recorded Ki for this entry: CC[C@@H]1CN2CCc3c([nH]c4cccc(O)c34)[C@@H]2C[C@@H]1/C(=C\OC)C(=O)OC
Key: 0.105

====

biological target: Delta-type opioid receptor (Homo sapiens, UniProt P41143); assay: biochemical
Sequence (P41143 whole entry): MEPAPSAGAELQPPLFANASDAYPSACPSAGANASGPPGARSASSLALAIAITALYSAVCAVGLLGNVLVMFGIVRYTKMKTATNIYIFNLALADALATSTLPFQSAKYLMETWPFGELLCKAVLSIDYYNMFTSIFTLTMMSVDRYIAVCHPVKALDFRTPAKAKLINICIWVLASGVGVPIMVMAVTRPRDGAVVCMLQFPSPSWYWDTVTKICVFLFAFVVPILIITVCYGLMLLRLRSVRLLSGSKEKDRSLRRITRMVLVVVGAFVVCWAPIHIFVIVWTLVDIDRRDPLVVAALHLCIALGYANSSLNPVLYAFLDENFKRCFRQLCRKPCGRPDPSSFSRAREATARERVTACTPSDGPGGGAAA
Endpoint name: Ki

Exercise: Form field: reported Ki of CC[C@@H]1CN2CC[C@@]3(O)C(=Nc4cccc(OC)c43)[C@@H]2C[C@@H]1/C(=C\OC)C(=O)OC
Key: 236 nM

====

target: Alpha-2B adrenergic receptor (Homo sapiens)
Sequence (P18089 whole entry): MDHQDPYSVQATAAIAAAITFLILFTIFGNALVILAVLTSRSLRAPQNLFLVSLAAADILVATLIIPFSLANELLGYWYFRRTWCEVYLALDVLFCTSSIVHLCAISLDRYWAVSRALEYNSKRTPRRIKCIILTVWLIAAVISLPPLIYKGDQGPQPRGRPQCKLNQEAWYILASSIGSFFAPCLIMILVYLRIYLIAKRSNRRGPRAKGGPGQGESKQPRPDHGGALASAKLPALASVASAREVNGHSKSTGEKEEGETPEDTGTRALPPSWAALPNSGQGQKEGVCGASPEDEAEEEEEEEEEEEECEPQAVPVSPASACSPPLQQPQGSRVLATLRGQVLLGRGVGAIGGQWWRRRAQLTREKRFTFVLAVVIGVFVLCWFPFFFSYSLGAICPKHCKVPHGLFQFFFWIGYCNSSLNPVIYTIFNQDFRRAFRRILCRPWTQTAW
Endpoint name: Ki (µM)
Respond numerically; units are µM and should not be typed.

Exercise: Fill blank: measured Ki of the molecule CC[C@@H]1CN2CCc3c([nH]c4cccc(OC)c34)[C@@H]2C[C@@H]1/C(=C\OC)C(=O)OC is ____.
Key: 9.29

====

target: Alpha-2A adrenergic receptor (Homo sapiens, UniProt P08913)
Sequence (P08913 whole entry): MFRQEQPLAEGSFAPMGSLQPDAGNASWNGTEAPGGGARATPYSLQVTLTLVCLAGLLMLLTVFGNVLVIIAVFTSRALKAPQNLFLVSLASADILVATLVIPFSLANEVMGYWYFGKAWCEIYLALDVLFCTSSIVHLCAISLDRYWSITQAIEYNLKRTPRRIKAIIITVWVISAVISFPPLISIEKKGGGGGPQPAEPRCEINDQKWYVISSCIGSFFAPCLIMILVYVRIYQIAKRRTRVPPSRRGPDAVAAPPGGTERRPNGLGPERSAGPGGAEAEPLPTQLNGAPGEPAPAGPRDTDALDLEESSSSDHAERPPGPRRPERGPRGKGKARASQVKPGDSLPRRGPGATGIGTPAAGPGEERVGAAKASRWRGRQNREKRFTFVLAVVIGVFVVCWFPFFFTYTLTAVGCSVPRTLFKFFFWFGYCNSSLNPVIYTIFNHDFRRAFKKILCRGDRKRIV
Endpoint name: pKi
Please treat pKi as minus the base-10 logarithm of the molar concentration.

Exercise: // returns reported pKi for input CC[C@@H]1CN2CCc3c([nH]c4cccc(OC)c34)[C@@H]2C[C@@H]1/C(=C\OC)C(=O)OC
Key: 5.33

====

assay: in vitro; conditions: human, plasma
Endpoint name: fraction unbound at 1 µM

Exercise: Requested read-out: fraction unbound at 1 µM. Entry: CC[C@@H]1CN2CC[C@@]3(O)C(=Nc4cccc(OC)c43)[C@@H]2C[C@@H]1/C(=C\OC)C(=O)OC
Key: 0.1

====

Target: Alpha-2C adrenergic receptor (Homo sapiens)
Sequence (P18825 whole entry): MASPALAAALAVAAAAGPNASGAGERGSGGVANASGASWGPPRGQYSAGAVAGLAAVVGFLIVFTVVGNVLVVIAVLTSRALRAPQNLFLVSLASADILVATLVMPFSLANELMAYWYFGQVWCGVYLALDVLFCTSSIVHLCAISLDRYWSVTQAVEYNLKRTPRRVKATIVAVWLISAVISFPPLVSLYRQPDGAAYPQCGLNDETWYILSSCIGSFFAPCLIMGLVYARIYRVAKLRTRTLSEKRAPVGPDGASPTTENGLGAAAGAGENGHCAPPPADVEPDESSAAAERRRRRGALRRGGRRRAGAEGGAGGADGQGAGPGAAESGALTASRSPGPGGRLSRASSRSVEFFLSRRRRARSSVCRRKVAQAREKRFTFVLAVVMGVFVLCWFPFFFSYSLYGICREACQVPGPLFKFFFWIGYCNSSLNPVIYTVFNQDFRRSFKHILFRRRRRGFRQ
Endpoint name: pKi
// field semantics: pKi = negative decimal log of concentration (mol/L)

Exercise: pKi for CC[C@@H]1CN2CCc3c([nH]c4cccc(OC)c34)[C@@H]2C[C@@H]1/C(=C\OC)C(=O)OC ?
Key: 5.63
